Assayed Target: DPP-4 (manufactured by Sigma, derived from porcine kidney) (Sus scrofa)
Construct: derived from porcine kidney; purchased Sigma; host or cells: porcine kidney (tissue-derived)
Sequence (P22411 whole entry): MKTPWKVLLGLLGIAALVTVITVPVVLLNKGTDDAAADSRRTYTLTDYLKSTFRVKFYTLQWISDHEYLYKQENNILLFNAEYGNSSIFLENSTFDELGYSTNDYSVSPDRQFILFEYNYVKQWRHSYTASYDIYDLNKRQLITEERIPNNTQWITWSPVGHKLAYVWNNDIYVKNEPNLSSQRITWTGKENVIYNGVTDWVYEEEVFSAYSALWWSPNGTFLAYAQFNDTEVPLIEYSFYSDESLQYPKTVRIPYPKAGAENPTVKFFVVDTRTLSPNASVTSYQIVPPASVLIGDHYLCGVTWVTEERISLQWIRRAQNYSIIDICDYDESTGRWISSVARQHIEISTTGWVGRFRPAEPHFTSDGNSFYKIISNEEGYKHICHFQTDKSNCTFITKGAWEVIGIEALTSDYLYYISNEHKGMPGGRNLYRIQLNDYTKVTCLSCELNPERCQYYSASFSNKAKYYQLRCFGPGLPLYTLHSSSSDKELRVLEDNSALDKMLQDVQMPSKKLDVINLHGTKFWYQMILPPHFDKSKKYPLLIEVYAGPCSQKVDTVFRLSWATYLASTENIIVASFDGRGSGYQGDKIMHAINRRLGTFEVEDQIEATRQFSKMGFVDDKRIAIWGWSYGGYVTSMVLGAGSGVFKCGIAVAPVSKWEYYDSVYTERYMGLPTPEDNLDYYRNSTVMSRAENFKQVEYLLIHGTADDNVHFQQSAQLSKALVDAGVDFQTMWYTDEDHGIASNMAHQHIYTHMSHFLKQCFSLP
Method Description: DPP-4 inhibition rate and IC50 measurement, fluorescence of AMC freed from Gly-Pro-MCA
Format: biochemical
Ends that are not written are not given here.
Recorded Endpoint: IC50 (µM)
Give just the number in µM; leave the unit off.

Q. Quote IC50 reported for GPIGPV [Example 6, Gly-Pro-Ile-Gly-Pro-Val] please.
A. 9.3
